# targetSystem: T1, human IL-11 (AAH12506.1, Pro22-Leu199) (human, UniProt P20809 22-199)
# T1 construct: The range Pro22-Leu199 counts on AAH12506.1; The Octet runs say only 'human IL-11'; also called hIL-11
# T1 chain: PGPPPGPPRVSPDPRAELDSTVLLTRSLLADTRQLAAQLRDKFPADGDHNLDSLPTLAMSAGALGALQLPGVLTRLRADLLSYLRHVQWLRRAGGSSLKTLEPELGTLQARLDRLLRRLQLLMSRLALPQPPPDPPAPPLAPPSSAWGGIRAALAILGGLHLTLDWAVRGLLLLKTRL
# protocolText: BLI (Octet), antibody captured, human IL-11 in solution
endpointLabel: koff (s⁻¹)
Return type: number; implicit unit s⁻¹.

Data request: I would be grateful if you could share the reported koff for hz8C8-VHm1 + hz8C8-VLm7-m2 (antibody, human IgG1, kappa, V domains shown, human IgG1 constant regions) VH: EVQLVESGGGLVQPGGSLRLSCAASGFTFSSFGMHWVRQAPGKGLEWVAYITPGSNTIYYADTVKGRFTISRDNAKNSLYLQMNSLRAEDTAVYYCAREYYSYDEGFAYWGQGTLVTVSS VL: EIVLTQSPATLSLSPGERATLSCSVSDLIPSQYLHWYQQKPGQAPRLLIYDASNLASGIPARFSGSGSGTDFTLTISSLEPEDFAVYYCQQGVDVPFTFGQGTKLEIKR .
Data returned: 3.7e-05

Data request: Same again, this time with hz8C8-VHm1 + hz8C8-VLm3 (antibody, human IgG1, kappa, V domains shown, human IgG1 constant regions) VH: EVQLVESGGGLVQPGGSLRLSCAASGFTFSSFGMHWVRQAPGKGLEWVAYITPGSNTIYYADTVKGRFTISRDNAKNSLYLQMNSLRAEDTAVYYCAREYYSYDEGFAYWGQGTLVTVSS VL: EIVLTQSPATLSLSPGERATLSCSVSSLISSNYLHWYQQKPGQAPRLLIYRTSNLASGIPARFSGSGSGTDFTLTISSLEPEDFAVYYCQQGVDVPFTFGQGTKLEIKR
Data returned: 0.000496

Data request: Same again, this time with hz8C8-VHm1-m6 + hz8C8-VLm7-m2 (antibody, human IgG1, kappa, V domains shown, human IgG1 constant regions) VH: EVQLVESGGGLVQPGGSLRLSCAASGFTFSSFGMHWVRQAPGKGLEWVAVITPGSNTIYYADTVKGRFTISRDNAKNSLYLQMNSLRAEDTAVYYCAREYYSYDEGFAYWGQGTLVTVSS VL: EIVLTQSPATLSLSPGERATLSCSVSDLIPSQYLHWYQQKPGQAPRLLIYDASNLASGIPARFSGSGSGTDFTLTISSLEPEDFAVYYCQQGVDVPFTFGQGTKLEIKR
Data returned: 0.00135

Data request: Same again, this time with hz8C8-VHm1-m11 + hz8C8-VLm7-m2 (antibody, human IgG1, kappa, V domains shown, human IgG1 constant regions) VH: EVQLVESGGGLVQPGGSLRLSCAASGFTFSSFGMHWVRQAPGKGLEWVAYITPGSNTIYYADTVKGRFTISRDNAKNSLYLQMNSLRAEDTAVYYCAREYYSYDEGPAYWGQGTLVTVSS VL: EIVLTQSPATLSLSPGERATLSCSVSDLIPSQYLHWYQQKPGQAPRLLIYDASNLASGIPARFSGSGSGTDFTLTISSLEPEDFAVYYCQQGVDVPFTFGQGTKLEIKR
Data returned: 0.001

Data request: Same again, this time with hz8C8-VHm1-m7 + hz8C8-VLm7-m2 (antibody, human IgG1, kappa, V domains shown, human IgG1 constant regions) VH: EVQLVESGGGLVQPGGSLRLSCAASGFTFSSFGMHWVRQAPGKGLEWVSVITPGSNTIYYADTVKGRFTISRDNAKNSLYLQMNSLRAEDTAVYYCAREYYSYDEGFAYWGQGTLVTVSS VL: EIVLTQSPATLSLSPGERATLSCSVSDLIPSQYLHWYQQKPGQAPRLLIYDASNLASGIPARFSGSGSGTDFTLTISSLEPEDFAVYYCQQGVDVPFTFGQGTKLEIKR
Data returned: 0.00111

Data request: Same again, this time with hz8C8-VHm1 + hz8C8-VLm9 (antibody, human IgG1, kappa, V domains shown, human IgG1 constant regions) VH: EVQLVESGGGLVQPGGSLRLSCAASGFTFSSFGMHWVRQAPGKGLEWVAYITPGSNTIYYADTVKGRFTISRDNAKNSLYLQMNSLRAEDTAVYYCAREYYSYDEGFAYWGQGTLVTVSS VL: EIVLTQSPATLSLSPGERATLSCSVSDLIPSQYLAWYQQKPGQAPRLLIYRTSNLASGIPARFSGSGSGTDFTLTISSLEPEDFAVYYCQQGVDVPFTFGQGTKLEIKR
Data returned: 3.45e-05

Data request: Same again, this time with hz8C8-VHm1 + hz8C8-VLm1 (antibody, human IgG1, kappa, V domains shown, human IgG1 constant regions) VH: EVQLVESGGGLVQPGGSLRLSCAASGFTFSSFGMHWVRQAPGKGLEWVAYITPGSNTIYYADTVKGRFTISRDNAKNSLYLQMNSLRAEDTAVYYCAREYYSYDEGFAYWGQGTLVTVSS VL: EIVLTQSPATLSLSPGERATLSCSVSSSIPSNYLHWYQQKPGQAPRLLIYRTSNLASGIPARFSGSGSGTDFTLTISSLEPEDFAVYYCQQGVDVPFTFGQGTKLEIKR
Data returned: 0.000125

Data request: Same again, this time with hz8C8-VHm1 + hz8C8-VLm7-m4 (antibody, human IgG1, kappa, V domains shown, human IgG1 constant regions) VH: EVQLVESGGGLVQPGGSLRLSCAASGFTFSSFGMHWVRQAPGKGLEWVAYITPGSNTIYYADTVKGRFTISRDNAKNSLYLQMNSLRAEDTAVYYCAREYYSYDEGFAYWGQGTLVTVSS VL: EIVLTQSPATLSLSPGERATLSCSVSDLIPSQYLHWYQQKPGQAPRLLIYRTSNRASGIPARFSGSGSGTDFTLTISSLEPEDFAVYYCQQGVDVPFTFGQGTKLEIKR
Data returned: 0.000178

Data request: Same again, this time with hz8C8-VHm3 + hz8C8-VL (antibody, human IgG1, kappa, V domains shown, human IgG1 constant regions) VH: EVQLVESGGGLVQPGGSLRLSCAASGFTFSSFGMHWVRQAPGKGLEWVAYITPGSNTTYYADTVKGRFTISRDNAKNSLYLQMNSLRAEDTAVYYCAREYYSYDEGFAYWGQGTLVTVSS VL: EIVLTQSPATLSLSPGERATLSCSVSSSISSNYLHWYQQKPGQAPRLLIYRTSNLASGIPARFSGSGSGTDFTLTISSLEPEDFAVYYCQQGVDVPFTFGQGTKLEIKR
Data returned: 0.00216

Data request: Same again, this time with hz8C8-VHm5 + hz8C8-VLm7 (antibody, human IgG1, kappa, V domains shown, human IgG1 constant regions) VH: EVQLVESGGGLVQPGGSLRLSCAASGFTFSSFGMSWVRQAPGKGLEWVAYITPGSNTIYYADTVKGRFTISRDNAKNSLYLQMNSLRAEDTAVYYCAREYYSYDEGFAYWGQGTLVTVSS VL: EIVLTQSPATLSLSPGERATLSCSVSDLIPSQYLHWYQQKPGQAPRLLIYRTSNLASGIPARFSGSGSGTDFTLTISSLEPEDFAVYYCQQGVDVPFTFGQGTKLEIKR
Data returned: 0.000175
